study target: Follistatin (Homo sapiens) (UniProt P19883)
Sequence (P19883 whole entry, looked up): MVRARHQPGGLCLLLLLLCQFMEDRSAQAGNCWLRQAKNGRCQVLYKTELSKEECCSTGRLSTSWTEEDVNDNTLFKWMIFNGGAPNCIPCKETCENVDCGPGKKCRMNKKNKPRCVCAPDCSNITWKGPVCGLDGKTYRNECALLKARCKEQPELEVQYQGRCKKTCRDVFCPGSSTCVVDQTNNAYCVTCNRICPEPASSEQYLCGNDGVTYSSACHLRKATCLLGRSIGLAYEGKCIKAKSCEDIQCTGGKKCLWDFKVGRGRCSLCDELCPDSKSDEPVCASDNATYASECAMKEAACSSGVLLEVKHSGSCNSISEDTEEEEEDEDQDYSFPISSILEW
protocol text: follistatin binders on small-molecule microarrays, primary screen, biochemical, small-molecule microarray, 635/667 nm fluorescence (AID 1132)
measurement context: FST binding, 635 nm fluorescence, higher = more signal
Field: composite z-score. Provide a value for each of the compounds that follow.
Answer field: number only, no words.

Short answer for "O=C(CS)NCCCCCCNC(=O)[C@@H]1C[C@@H]2C(=O)NCC(=O)N2[C@@H]1c1cccc(OCCO)c1" : composite z-score was 0.998

Short answer for "O=C1c2ccccc2[C@](Cc2ccccc2I)(C(=O)NCCN2CCOCC2)[C@H](c2ccc(CO)cc2)N1Cc1ccccc1Cl" : composite z-score was 1

Short answer for "C#C[C@H](O[Si](C#Cc1ccc(Oc2ccccc2)cc1)(C(C)C)C(C)C)c1ccccc1" : composite z-score was 0.101

Short answer for CN1C(=O)C2C=CC(C(O)c3ccco3)N(Nc3ccccc3)C2C1=O (configuration not stated) : composite z-score was 0.861

Short answer for "Cc1ccc(N2C(=O)c3ccccc3[C@@H](C(=O)NC3CC3)[C@@H]2c2ccc(CO)cc2)nc1" : composite z-score was -0.71

Short answer for "C=CCOC(=O)[C@H]1[C@@H]2C(=O)O[C@@H](c3ccccc3)[C@@H](c3ccccc3)N2[C@@H](c2ccc(OCCOC(=O)[C@@H]3C[C@@H]4C(=O)N[C@@H](CCCCNC(C)=O)C(=O)N4[C@@H]3c3ccc(O)cc3)cc2)[C@]12C(=O)Nc1ccccc12" : composite z-score was 1.25

Short answer for "C=C(/C(=C/C[C@H](OC(C)=O)c1ccc(CO)o1)c1cc(C(=O)OC)ccc1OC)C(C)C" : composite z-score was 0.467
